- system_name: Recombinant ROCK1 (amino acids 1-535) (Homo sapiens (Human), UniProt Q13464)
- Sequence (Q13464 1-535): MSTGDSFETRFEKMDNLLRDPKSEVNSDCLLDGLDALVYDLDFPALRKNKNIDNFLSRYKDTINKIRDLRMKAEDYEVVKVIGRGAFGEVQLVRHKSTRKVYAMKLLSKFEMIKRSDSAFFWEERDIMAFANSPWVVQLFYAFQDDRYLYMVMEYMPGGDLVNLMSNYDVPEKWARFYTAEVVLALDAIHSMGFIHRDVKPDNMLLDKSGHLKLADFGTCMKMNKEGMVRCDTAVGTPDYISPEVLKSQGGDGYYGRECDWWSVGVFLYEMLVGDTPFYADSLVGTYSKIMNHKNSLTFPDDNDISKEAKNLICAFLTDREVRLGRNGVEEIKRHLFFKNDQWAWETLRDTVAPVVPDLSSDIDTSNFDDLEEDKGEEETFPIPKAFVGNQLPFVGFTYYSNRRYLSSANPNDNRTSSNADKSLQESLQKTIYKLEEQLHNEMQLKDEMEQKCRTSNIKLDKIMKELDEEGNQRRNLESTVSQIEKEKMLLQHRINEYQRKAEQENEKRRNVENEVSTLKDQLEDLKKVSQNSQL
- method: Z′-Lyte kinase assay, ROCK1
- Type: biochemical
measured_metric: IC50

c1cncc(-c2cccc(Nc3ccnc(N4CCNCC4)n3)c2)c1 [Example 346] ... > 10 µM
COc1cccc(CNC2CCCN(c3nccc(Nc4ccc5[nH]ncc5c4)n3)C2)c1 (stereo not drawn) [Example 233] ... > 10 µM

Qu. Output IC50 of N[C@@H]1CCN(c2nccc(Nc3ccc4[nH]ncc4c3)n2)C1 [Example 231]
Ans. > 10 µM

* * *

- system_name: Recombinant ROCK1 (amino acids 1-535) (Homo sapiens (Human))
- method: Z′-Lyte kinase assay, ROCK1
- Assay type: biochemical
- test_context: 9 points 2-fold serial dilution
measured_metric: IC50 (nM)
Could you give me the number in nM? Just the number is fine.

Examples with their reported IC50 follow.
Fc1cnc(N2C3CNCC2C3)nc1Nc1ccc2[nH]ncc2c1 [Example 220] ... 3.1
c1cc(Nc2ccc3[nH]ncc3c2)nc(N2CC3CC2CN3)n1 (centres unmarked) [Example 201] ... 37
CC1CNCCN(c2nccc(Nc3ccc4[nH]ncc4c3)n2)C1 (centres unmarked) [Example 237] ... 63
Fc1cnc(N2CCNCC2)nc1Nc1ccc2[nH]ncc2c1 [Example 214] ... 38

Qu. Item Cc1cc(Nc2ccc3[nH]ncc3c2)nc(N2C3CCC2CNC3)n1 [Example 209] : provide IC50
Ans. 5

Qu. Annotate the molecule c1cc(Nc2ccc3[nH]ncc3c2)nc(N2C3CNCC2C3)n1 [Example 200] with its measured IC50.
Ans. 28

Qu. Note IC50 for the molecule shown: Clc1cnc(N2CCNCC2)nc1Nc1ccc2[nH]ncc2c1 [Example 178]
Ans. 388

Qu. Provide one value: measured IC50 of Fc1cnc(N2CC3CC2CN3)nc1Nc1ccc2[nH]ncc2c1 (centres unmarked) [Example 219]
Ans. 18

Qu. Please give measured IC50 of the following entry: Clc1cnc(N2C3CCC2CNC3)nc1Nc1ccc2[nH]ncc2c1 [Example 192]
Ans. 5

Qu. # return recorded IC50 for input Clc1cnc(N2CC3CC2CN3)nc1Nc1ccc2[nH]ncc2c1 (centres unmarked) [Example 194]
Ans. 41
